# test target: human IP6K1 (Homo sapiens, UniProt Q92551)
# Construct: human IP6K1 (1-441) gene; GST; made in house; host or cells: Sf-9 insect cells
# Sequence (Q92551 whole entry): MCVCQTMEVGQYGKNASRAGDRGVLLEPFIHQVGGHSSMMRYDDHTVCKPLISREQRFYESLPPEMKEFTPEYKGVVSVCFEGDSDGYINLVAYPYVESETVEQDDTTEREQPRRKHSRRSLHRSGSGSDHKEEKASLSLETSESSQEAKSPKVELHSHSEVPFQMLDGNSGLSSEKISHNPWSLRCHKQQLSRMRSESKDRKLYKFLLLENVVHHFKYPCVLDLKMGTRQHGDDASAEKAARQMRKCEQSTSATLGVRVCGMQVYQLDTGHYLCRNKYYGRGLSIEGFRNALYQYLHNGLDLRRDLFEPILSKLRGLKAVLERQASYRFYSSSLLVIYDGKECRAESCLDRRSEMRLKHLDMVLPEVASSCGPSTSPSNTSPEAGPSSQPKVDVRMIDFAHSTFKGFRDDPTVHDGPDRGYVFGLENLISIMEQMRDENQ
# test summary: IP6K enzyme inhibitory assay (ADP-Glo Kinase Assay), human IP6K1
# Type: biochemical
# condition details: compound concentration 0.1 μM; read-out: ADP-Glo method inhibitory rate (%) human IP6K1

compound structure string	inhibition at 0.1 µM, %
Cc1ccc(O[C@H]2CC[C@@]3(CC2)C(=O)Nc2ccc(C(=O)O)cc23)cc1F	99
COc1cc(Cl)ccc1O[C@H]1CC[C@]2(CC1)C(=O)Nc1ccc(C(=O)O)cc12	97
O=C(O)c1ccc2c(c1)[C@]1(CC[C@H](Oc3ccc(Cl)cc3)CC1)C(=O)N2	97
O=C(O)c1ccc2c(c1)[C@]1(CC[C@@H](Oc3ccc(F)cc3F)CC1)C(=O)N2	99
NC(=O)c1cc(Cl)ccc1O[C@H]1CC[C@@]2(CC1)C(=O)Nc1ccc(C(=O)O)cc12	100
N#Cc1cc(O[C@H]2CC[C@@]3(CC2)C(=O)Nc2ccc(C(=O)O)cc23)ccc1Cl	88
O=C(O)c1ccc2c(c1)[C@]1(CC[C@@H](Oc3ccc(F)cc3Cl)CC1)C(=O)N2	93
Cc1cc(C(F)(F)F)cnc1O[C@H]1CC[C@@]2(CC1)C(=O)Nc1ccc(C(=O)O)nc12	90
O=C(O)c1ccc2c(n1)[C@]1(CC[C@@H](Oc3c(F)cc(Cl)cc3F)CC1)C(=O)N2	92
O=C(O)c1ccc2c(c1)[C@]1(CC[C@@H](Oc3ncc(C(F)(F)F)cc3Cl)CC1)C(=O)N2	99
Cc1ccc(O[C@H]2CC[C@@]3(CC2)C(=O)Nc2ccc(C(=O)O)cc23)nc1	79
Cc1cncc(O[C@H]2CC[C@@]3(CC2)C(=O)Nc2ccc(C(=O)O)cc23)c1	37
O=C(O)c1ccc2c(c1)[C@]1(CC[C@@H](Oc3ccc(C(F)(F)F)nc3)CC1)C(=O)N2	96
Cc1ccc(C(F)(F)F)c(O[C@H]2CC[C@@]3(CC2)C(=O)Nc2ccc(C(=O)O)nc23)n1	54
Cn1nc(O[C@H]2CC[C@@]3(CC2)C(=O)Nc2ccc(C(=O)O)cc23)cc1C(F)(F)F	62
O=C(O)c1ccc2c(c1)[C@]1(CC[C@H](Oc3ccccc3)CC1)C(=O)N2	94

* * *

# test target: human IP6K3 (Homo sapiens, UniProt Q96PC2)
# Construct: human IP6K3 (1-410) gene; made in house; host or cells: BL21 (DE3) Escherichia coli
# Sequence (Q96PC2 whole entry): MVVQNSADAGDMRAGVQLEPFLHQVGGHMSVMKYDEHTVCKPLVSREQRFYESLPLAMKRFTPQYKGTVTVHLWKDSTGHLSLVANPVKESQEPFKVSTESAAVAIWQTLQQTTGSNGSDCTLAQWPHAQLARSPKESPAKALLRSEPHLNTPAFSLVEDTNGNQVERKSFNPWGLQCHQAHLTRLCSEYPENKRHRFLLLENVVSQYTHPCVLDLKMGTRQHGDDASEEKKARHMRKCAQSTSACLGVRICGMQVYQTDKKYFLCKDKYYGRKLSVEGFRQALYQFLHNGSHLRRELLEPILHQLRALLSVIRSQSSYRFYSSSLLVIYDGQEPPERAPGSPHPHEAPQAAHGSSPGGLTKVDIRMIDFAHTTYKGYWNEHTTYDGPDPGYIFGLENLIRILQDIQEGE
# test summary: IP6K enzyme inhibitory assay (ADP-Glo Kinase Assay), human IP6K3
# Type: biochemical
# condition details: compound concentration 0.1 μM; read-out: ADP-Glo method inhibitory rate (%) human IP6K3
# Procedure: IP6K Enzyme Inhibitory Assay Human IP6K3 enzyme was prepared by transducing human IP6K3 (1-410) gene into BL21 (DE3) Escherichia coli and purifying by Ni-NTA (nickel-nitrilotriacetic acid) affinity column. […] The IP6K enzyme inhibitory activity of the test compound was measured by the following experiment method and using ADP-Glo™ Kinase Assay (manufactured by Promega). […] After the reaction, the luminescence intensity was measured by a plate reader Envision (manufactured by PerkinElmer).

molecule	test target	inhibition at 0.1 µM [%]
O=C(O)c1ccc2c(c1)[C@]1(CC[C@@H](Oc3ccc(Cl)cn3)CC1)C(=O)N2 [Example 11]	human IP6K3 (Homo sapiens, UniProt Q96PC2)	102
N#Cc1ccc(O[C@H]2CC[C@@]3(CC2)C(=O)Nc2ccc(C(=O)O)cc23)cc1Cl [Example 73]	human IP6K3 (Homo sapiens, UniProt Q96PC2)	91
O=C(O)c1ccc2c(n1)[C@]1(CC[C@H](Oc3ccccc3Cl)CC1)C(=O)N2 [Example 85]	human IP6K3 (Homo sapiens, UniProt Q96PC2)	95
Cc1ccc(O[C@H]2CC[C@@]3(CC2)C(=O)Nc2ccc(C(=O)O)cc23)cc1C [Example 46]	human IP6K3 (Homo sapiens, UniProt Q96PC2)	99
O=C(O)c1ccc2c(n1)[C@]1(CC[C@H](Oc3ccc(Cl)cc3Cl)CC1)C(=O)N2 [Example 101]	human IP6K3 (Homo sapiens, UniProt Q96PC2)	98
Cc1cccc(O[C@H]2CC[C@@]3(CC2)C(=O)Nc2ccc(C(=O)O)cc23)c1F [Example 53]	human IP6K3 (Homo sapiens, UniProt Q96PC2)	97
O=C(O)c1ccc2c(c1)[C@]1(CC[C@@H](Oc3cccc(C(F)(F)F)c3F)CC1)C(=O)N2 [Example 77]	human IP6K3 (Homo sapiens, UniProt Q96PC2)	98
O=C(O)c1ccc2c(c1)[C@]1(CC[C@@H](Oc3cccc(C(F)(F)F)c3)CC1)C(=O)N2 [Example 75]	human IP6K3 (Homo sapiens, UniProt Q96PC2)	89
O=C(O)c1ccc2c(c1)[C@]1(CC[C@@H](Oc3ccc(Cl)c(F)c3)CC1)C(=O)N2 [Example 69]	human IP6K3 (Homo sapiens, UniProt Q96PC2)	96
O=C(O)c1ccc2c(c1)[C@]1(CC[C@H](Oc3ccccc3)CC1)C(=O)N2 [Example 107]	human IP6K3 (Homo sapiens, UniProt Q96PC2)	92
O=C(O)c1ccc2c(c1)[C@]1(CC[C@@H](Oc3ncc(C(F)(F)F)cc3F)CC1)C(=O)N2 [Example 27]	human IP6K3 (Homo sapiens, UniProt Q96PC2)	96
NC(=O)c1cc(Cl)ccc1O[C@H]1CC[C@@]2(CC1)C(=O)Nc1ccc(C(=O)O)cc12 [Example 8]	human IP6K3 (Homo sapiens, UniProt Q96PC2)	95
N#Cc1ccc(O[C@H]2CC[C@@]3(CC2)C(=O)Nc2ccc(C(=O)O)cc23)cc1 [Example 45]	human IP6K3 (Homo sapiens, UniProt Q96PC2)	97
O=C(O)c1ccc2c(c1)[C@]1(CC[C@@H](Oc3ncc(C4CC4)cc3C(F)(F)F)CC1)C(=O)N2 [Example 31]	human IP6K3 (Homo sapiens, UniProt Q96PC2)	100
Cc1cc(Cl)cnc1O[C@H]1CC[C@@]2(CC1)C(=O)Nc1ccc(C(=O)O)nc12 [Example 17]	human IP6K3 (Homo sapiens, UniProt Q96PC2)	93
O=C(O)c1ccc2c(c1)[C@]1(CC[C@@H](Oc3ccc(Cl)cc3Cl)CC1)C(=O)N2 [Example 1]	human IP6K3 (Homo sapiens, UniProt Q96PC2)	99

Data credit: patent US10968178B2
